Just for reference, PubChem BioAssay (NCATS) is where these values come from.

- ASSAY METHOD TEXT: Quantitative High-Throughput drug screen in 47 multiple myeloma cell lines against the NCATS MIPE library collection: XG1_PLB cell viability assay (AID 1919866); further: nearly all actives have a fitted effect of over 35% in size
- SETUP CONDITIONS: CellTiter-Glo ATP, 48 h; series mostly up to 45.8 µM
Inconclusive results are not listed. Activity calls are given as the source filed them. The call rests on the fitted dose curve; in most records, active means well fitted cell-killing curve with a large enough effect; inconclusive means small, poorly fitted or top-dose-only effect, or effect the other way; inactive means no such curve, though single readings can be large or run the other way.
Please answer using one outcome listed in true (1) (active), false (0) (inactive)

Recorded results for 3 compounds are shown here.
COMPOUND	GROUP LABEL
O=C(c1ccc(C(=O)N2CCC(N3CCCC3)CC2)c(Nc2ccccc2)c1)N1CCC(N2CCCC2)CC1	false (0)
COc1cc2c(cc1OC)CC(=O)N(CCCN(C)C[C@H]1Cc3cc(OC)c(OC)cc31)CC2	false (0)
COc1ccc(-c2cc(=O)c3c(O)cc(O[C@@H]4O[C@H](CO[C@@H]5O[C@@H](C)[C@H](O)[C@@H](O)[C@@H]5O)[C@@H](O)[C@H](O)[C@@H]4O)cc3o2)cc1O	true (1)

Req: Each compound tested received a call. Report the one for `Fc1ccc(C(c2ccc(F)cc2)N2CCN(CC=Cc3ccccc3)CC2)cc1` .
Resp: true (1)

Req: Proceed to `O=C(O)CCNc1cc(N2CCc3ccccc3CC2)nc(-c2ccccn2)n1`
Resp: true (1)

====

- System: PA-1
- ASSAY METHOD TEXT: Primary qHTS to identify gynecologic anti-cancer compounds using libraries of approved drugs and bioactive compounds (AID 1345084); further: nearly all actives have a fitted effect of over 55% in size
- SETUP CONDITIONS: Gynecologic cancer cell panel viability, ATPlite luminescence, 48 h; series mostly up to 57.5 µM
Inconclusive results are not listed. Active and inactive are the calls of the source. Calls come from the whole dose curve; as a rule, active = well fitted cell-killing curve with a large enough effect; inconclusive = small, poorly fitted or top-dose-only effect, or effect the other way; inactive = flat fitted curve, though single readings scatter.
Please answer using one outcome listed in active, inactive

Recorded results for 3 compounds are shown here.
>>> print(df.to_string())
                               given_smiles  group_label
0  CC[C@H](CC#N)OC(=O)N[C@@H](C)c1cccc(NC(=O)Nc2ccc(-c3cnco3)c(OC)c2)c1       active
1   COc1ccc(CCC(=O)Nc2nc3ccc(Cl)cc3s2)cc1OC     inactive
2  Cc1nc(C(=O)NCC(=O)O)c(O)c2ccc(Oc3ccccc3)cc12     inactive

Req: Each compound tested received a call. Report the one for `Cc1ccc2c(c1)C(=O)[C@]1(O)CCN(c3ccccc3)C1=N2` .
Resp: inactive

Req: Proceed to `NS(=O)(=O)c1ccc(Nc2nc(OCC3CCCCC3)c3[nH]cnc3n2)cc1`
Resp: inactive

Req: Proceed to `COc1cc(Nc2nc3ccccc3nc2NS(=O)(=O)c2ccc(NC(=O)c3ccc(C)c(OC)c3)cc2)cc(OC)c1`
Resp: inactive

Req: Proceed to `Cc1ccccc1-n1c(Cn2nc(-c3cccc(O)c3)c3c(N)ncnc32)nc2cccc(C)c2c1=O`
Resp: inactive

Req: Proceed to `CN(C)CCN(Cc1ccc(Cl)cc1)c1ccccn1`
Resp: inactive

Req: Proceed to `O=C(O)CCNc1cc(N2CCc3ccccc3CC2)nc(-c2ccccn2)n1`
Resp: inactive

Req: Proceed to `CNC(=O)c1c(-c2ccc(F)cc2)oc2cc(N(CCO)S(C)(=O)=O)c(C3CC3)cc12`
Resp: inactive

====

- Tested on: DIV17
- ASSAY METHOD TEXT: qHTS profiling for inhibitors of Plasmodium falciparum proliferation (AID 504749); further: nearly all actives have a fitted effect of over 60% in size
- SETUP CONDITIONS: P. falciparum in erythrocytes, SYBR Green DNA, 72 h; series mostly up to 28.7 µM
Records with an inconclusive call do not appear. Calls of active or inactive are those of the source. The call rests on the fitted dose curve; in most records, active means well fitted inhibition curve with a large enough effect; inconclusive means small, poorly fitted or top-dose-only effect; inactive means flat fitted curve, though single readings scatter.
Please answer using one outcome listed in yes (1) for active, no (0) for inactive

>>> df
                                   compound  group_label
0  COc1ccnc(CS(=O)c2nc3ccc(OC(F)F)cc3[nH]2)c1OC (stereo not given)       no (0)
1  CS(=O)(=O)c1ccc(C2=C(c3ccccc3)C(=O)OC2)cc1       no (0)

Req: Each compound tested received a call. Report the one for `COc1c(C)c2c(c(O)c1CC=C(C)CCC(=O)OCCN1CCOCC1)C(=O)OC2` .
Resp: yes (1)

Req: Proceed to `O=C(O)c1nc(=O)[nH]c(=O)[nH]1`
Resp: no (0)

Req: Proceed to `NS(=O)(=O)c1cc(Cl)c(Cl)c(S(N)(=O)=O)c1`
Resp: no (0)

====

- ASSAY METHOD TEXT: Quantitative High-Throughput drug screen in 47 multiple myeloma cell lines against the NCATS MIPE library collection: RPMI8226_ATCC cell viability assay (AID 1919871); further: nearly all actives have a fitted effect of over 30% in size; further: potency means the concentration at half of the fitted maximal effect
- SETUP CONDITIONS: RPMI8226 myeloma viability, CellTiter-Glo ATP luminescence, 48 h; series mostly up to 45.8 µM
Inconclusive results are not listed. Active and inactive are the calls of the source. Calls come from the whole dose curve; as a rule, active = well fitted cell-killing curve with a large enough effect; inconclusive = small, poorly fitted or top-dose-only effect, or effect the other way; inactive = no such curve, though single readings can be large or run the other way.
MEASUREMENT LABEL: Potency

Recorded results for 4 compounds are shown here.
>>> print(df.to_string())
                                   compound        test_value
0  O=c1[nH]nc(OCCCc2ccc(Cl)cc2)c(NCc2cccnc2)c1Br  20.9 µM (active)
1  Fc1ccc(C(c2ccc(F)cc2)N2CCN(CC=Cc3ccccc3)CC2)cc1  16.6 µM (active)
2  CCc1cc(-c2n[nH]c(C)c2-c2ccc3c(c2)OCCO3)c(O)cc1O  6.62 µM (active)
3  CN[C@@H](C)[C@H]1[C@H](O)C[C@@]2(C)[C@@H]3CC[C@H]4C(C)(C)[C@@H](NC)CC[C@@]45C[C@@]35CC[C@]12C          inactive

Would you be so kind as to report Potency for each listed record?
1. O=S(=O)(NCCNCC=Cc1ccc(Br)cc1)c1cccc2cnccc12
2. Cc1cc(OCCCS(C)(=O)=O)cc(C)c1-c1cccc(COc2ccc3c(c2)OC[C@H]3CC(=O)O)c1
3. Cc1cccc(-c2[nH]c(C(C)(C)C)nc2-c2ccc3c(c2)OCO3)n1
4. COc1cc(C=CC(=O)O)ccc1O
5. CN1CCN(c2ncc(-c3cc(Cl)cc(Cl)c3Cl)c(N)n2)CC1
6. OC1CCC(Nc2ncc3nc(Nc4c(F)cc(F)cc4F)n([C@@H]4CCOC4)c3n2)CC1 (stereo not given in full)

Resp:
["20.9 µM (active)", "18.7 µM (active)", "16.6 µM (active)", "inactive", "inactive", "inactive"]

====

- ASSAY METHOD TEXT: qHTS of pediatric cancer cell lines to identify multiple opportunities for drug repurposing: Primary screen for RD cells (AID 1347104); further: nearly all actives have a fitted effect of over 55% in size
- SETUP CONDITIONS: RD rhabdomyosarcoma viability, CellTiter-Glo luminescence, 48 h; series mostly up to 46 µM
Results filed as inconclusive are left out. Active and inactive are the calls of the source. The call rests on the fitted dose curve; in most records, active means well fitted cell-killing curve with a large enough effect; inconclusive means small, poorly fitted or top-dose-only effect; inactive means flat fitted curve, though single readings scatter.
Please answer using one outcome listed in class 1 for active, class 0 for inactive

>>> print(df.to_string())
                                   compound  group_label
0    CCNC(=O)Nc1ccc(Oc2ncnc(N)c2C=NOC)cc1Cl      class 0
1  C[C@H]1COC2=C1C(=O)C(=O)c1c2ccc2c1CCCC2(C)C      class 0
2  CNc1nc(Nc2ccc(C(=O)N3CCOCC3)cc2OC)ncc1Cl      class 0
3  COc1nccc(-c2c(-c3ccc(F)cc3)ncn2C2CCC(O)CC2)n1 (configuration not stated)      class 0
4  Clc1ccc(C2(c3ccc(-c4cn[nH]c4)cc3)CCNCC2)cc1      class 1

Req: Each compound tested received a call. Report the one for `CNC(=O)c1cc(Oc2ccc(NC(=O)Nc3ccc(Cl)c(C(F)(F)F)c3)c(F)c2)ccn1` .
Resp: class 1

Req: Proceed to `CC[C@H](C=C[C@@H](C)[C@H]1CC[C@H]2[C@@H]3CC=C4C[C@@H](O)CC[C@]4(C)[C@@H]3CC[C@]12C)C(C)C`
Resp: class 0

====

- ASSAY METHOD TEXT: Quantitative High-Throughput drug screen in 47 multiple myeloma cell lines against the NCATS MIPE library collection: OPM2_DSMZ cell viability assay (AID 1919872); further: nearly all actives have a fitted effect of over 30% in size
- SETUP CONDITIONS: OPM2 myeloma viability, CellTiter-Glo ATP luminescence, 48 h; series mostly up to 45.8 µM
- From the text: PI: Beverly A. Mock Ph.D. Laboratory of Cancer Biology and Genetics, Center for Cancer Research, National Cancer Institute, National Institute of Health, Bethesda, Maryland […] 5; Detector; 425V; Luminescence; Viewlux PerkinElmer. […] 1. […] Briefly, the corresponding myeloma cell lines were screened in 1,536-well plates with 500 cells, 5-uL per well for inhibition of cell viability (assessed by measuring ATP levels with CellTiterGlo). […]
Inconclusive results are not listed. Active and inactive are the calls of the source. Calls follow the shape of the dose curve; as a rule, active = well fitted cell-killing curve with a large enough effect; inconclusive = small, poorly fitted or top-dose-only effect, or effect the other way; inactive = no such curve, though single readings can be large or run the other way.
Please answer using one outcome listed in active, inactive

Recorded results for 8 compounds are shown here.
In [3]: df
Out[3]:
                                   compound  group_label
0  O=C1NC(=O)C(c2cnc3ccccn23)=C1c1cn2c3c(cccc13)CN(C(=O)N1CCOCC1)CC2       active
1  OC[C@H]1O[C@@H](OCCc2ccc(O)cc2)[C@H](O)[C@@H](O)[C@H]1O     inactive
2  CCOc1ccccc1N=Nc1c(C)[nH]n(-c2nc(-c3ccccc3)cs2)c1=O     inactive
3  COc1cc2ncn(-c3cc(OCc4ccccc4S(C)(=O)=O)c(C#N)s3)c2cc1OC     inactive
4  OC[C@H]1O[C@@H](Oc2ccc(O)cc2)[C@H](O)[C@@H](O)[C@H]1O     inactive
5  O[C@@H](COc1cccc2ncccc12)CN1CCN(C2c3ccccc3[C@@H]3[C@H](c4ccccc42)C3(F)F)CC1 (some centres undefined)     inactive
6           CN(C)CCN(Cc1ccc(Cl)cc1)c1ccccn1     inactive
7  CN1c2ccccc2C(=O)N2CCc3c([nH]c4ccccc34)C21 (centres undefined)     inactive

Proceed to the following item.
Req: Each compound tested received a call. Report the one for `O=C(Nc1cccc2c(=O)cc(-c3nn[nH]n3)oc12)c1ccc(OCCCCc2ccccc2)cc1` .
Resp: inactive
